molecular target: human TRPA1 (Homo sapiens (Human)); assay: FLIPR Tetra calcium influx assay, block of cinnamaldehyde-induced calcium influx in CHO cells expressing TRPA1 (human); assay type: cell-based; conditions: 20 min compound incubation, 75 uM cinnamaldehyde (~EC80), Hill coefficient fixed to 1.5, read-out: hTRPA1 AUC IC50
Response field label: string, one of 1.0 (IC50 strictly below 50 nM) or 0.0.

Example entries begin here.
# molecule, label class
data = [
    ("O=C(NCc1cc(-c2ccc(C(F)(F)F)cn2)ccc1F)[C@@H]1C[C@@H](F)CN1S(=O)(=O)c1ccc(F)cc1", 1.0),
    ("O=C(NCc1cc(C23CCC(C(F)F)(CC2)CC3)ncn1)[C@@H]1C[C@@H](F)CN1S(=O)(=O)c1ccc(F)cc1", 0.0),
    ("O=C(NCc1cc(-c2cnc(C(F)(F)F)nc2)ccn1)[C@@H]1C[C@@H](F)CN1S(=O)(=O)c1ccc(F)cc1", 0.0),
    ("O=C(NCc1cc(-c2ccc(C(F)(F)F)cn2)ccn1)[C@@H]1[C@@H](F)CCN1S(=O)(=O)c1ccc(F)cc1", 1.0),
    ("O=C(NCc1cc(N2CCC(C(F)(F)F)CC2)c(C(F)(F)F)cn1)[C@@H]1C[C@@H](F)CN1S(=O)(=O)c1ccc(F)cc1", 0.0),
]

Is the reported IC50 for C[C@@]1(C(=O)NCc2cc(-c3ccc(C(F)(F)F)nc3)ncn2)C[C@@H](F)CN1S(=O)(=O)c1ccc(F)cc1 (single isomer, unassigned) strictly below 50 nM?
0.0

Is the reported IC50 for "O=C(NCc1cc(-c2cnc(C(F)(F)F)nc2)ccn1)[C@@H]1[C@@H](F)CCN1S(=O)(=O)c1ccc(F)cc1" strictly below 50 nM?
0.0

Is the reported IC50 for O=C(NCc1cc(-c2ccc(C(F)(F)F)nc2)ncn1)C1C2CC(CC2F)N1S(=O)(=O)c1ccc(F)cc1 (stereo not drawn) strictly below 50 nM?
0.0

Is the reported IC50 for "COCCOc1cc(-c2ccc(C(F)(F)F)nc2)cc(CNC(=O)[C@@H]2C[C@@H](F)CN2S(=O)(=O)c2ccc(F)cc2)n1" strictly below 50 nM?
0.0

###

target: human TRPA1 (Homo sapiens (Human)); test: FLIPR Tetra calcium influx assay, block of cinnamaldehyde-induced calcium influx in CHO cells expressing TRPA1 (human); type: cell-based; details: 20 min compound incubation, 75 uM cinnamaldehyde (~EC80), Hill coefficient fixed to 1.5, read-out: hTRPA1 AUC IC50
Entries annotated with measured pIC50
Please report pIC50 as the negative decimal logarithm of the molar concentration, giving only the number.

Quick one: pIC50 for "O=C(NCc1cn(-c2ccc(C(F)(F)F)nc2)nc1Cl)[C@@H]1CCN1S(=O)(=O)c1ccc(F)cc1" ?
6.86

Quick one: pIC50 for "COc1cc(CNC(=O)[C@@H]2C[C@@H](F)CN2S(=O)(=O)c2ccc(F)cc2)cc(-c2cnc(C(F)(F)F)nc2)n1" ?
8.10

Quick one: pIC50 for "O=C(NCc1ccnc(-c2cnc(C(F)(F)F)cn2)c1)[C@@H]1C[C@@H](F)CN1S(=O)(=O)c1ccc(F)cc1" ?
6.54

###

Biological target: human TRPA1 (Homo sapiens (Human), UniProt O75762)
Sequence (O75762 whole entry): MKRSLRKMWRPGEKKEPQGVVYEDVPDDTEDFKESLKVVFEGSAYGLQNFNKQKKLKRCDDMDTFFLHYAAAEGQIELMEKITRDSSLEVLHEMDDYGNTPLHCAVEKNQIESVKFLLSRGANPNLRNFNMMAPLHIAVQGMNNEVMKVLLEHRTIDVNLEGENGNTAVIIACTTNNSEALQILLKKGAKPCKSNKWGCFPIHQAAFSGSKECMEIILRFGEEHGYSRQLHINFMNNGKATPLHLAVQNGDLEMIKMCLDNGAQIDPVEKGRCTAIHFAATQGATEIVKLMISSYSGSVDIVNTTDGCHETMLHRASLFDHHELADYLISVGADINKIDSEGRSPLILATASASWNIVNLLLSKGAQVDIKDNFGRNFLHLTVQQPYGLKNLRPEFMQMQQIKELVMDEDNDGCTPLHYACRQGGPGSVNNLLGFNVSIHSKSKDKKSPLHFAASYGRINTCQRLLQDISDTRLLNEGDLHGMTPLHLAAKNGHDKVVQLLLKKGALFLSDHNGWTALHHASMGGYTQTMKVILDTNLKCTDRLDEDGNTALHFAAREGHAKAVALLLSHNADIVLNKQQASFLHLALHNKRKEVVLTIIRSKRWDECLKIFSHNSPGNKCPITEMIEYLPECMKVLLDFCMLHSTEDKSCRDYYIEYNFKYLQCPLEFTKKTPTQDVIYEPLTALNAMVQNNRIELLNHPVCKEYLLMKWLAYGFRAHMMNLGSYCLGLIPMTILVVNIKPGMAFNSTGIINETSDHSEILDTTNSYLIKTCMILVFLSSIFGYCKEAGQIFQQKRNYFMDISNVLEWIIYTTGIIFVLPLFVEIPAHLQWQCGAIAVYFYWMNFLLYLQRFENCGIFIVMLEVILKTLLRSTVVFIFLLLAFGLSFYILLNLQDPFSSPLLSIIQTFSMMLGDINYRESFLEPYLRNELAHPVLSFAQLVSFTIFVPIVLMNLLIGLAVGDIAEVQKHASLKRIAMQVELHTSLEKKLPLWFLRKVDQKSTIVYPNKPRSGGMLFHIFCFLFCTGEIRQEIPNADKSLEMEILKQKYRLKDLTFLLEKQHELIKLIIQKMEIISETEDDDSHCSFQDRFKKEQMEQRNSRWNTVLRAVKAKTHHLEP
Assay: FLIPR Tetra calcium influx assay, block of cinnamaldehyde-induced calcium influx in CHO cells expressing TRPA1 (human)
Assay type: cell-based
Settings: 20 min compound incubation, 75 uM cinnamaldehyde (~EC80), Hill coefficient fixed to 1.5, read-out: hTRPA1 AUC IC50
Experimental: IC50 Determinations of Exemplified Compounds. IC50s (effective concentration) of compounds on the human and rat TRPA1 channels were determined using a FLIPR Tetra instrument. CHO cells expressing TRPA1 were plated into 384-well plates, incubated overnight at 37C, and loaded with BD calcium indicator dye for 1 hr at 37° C. followed by 15 minutes. at room temperature. The assay buffer was Hank's Balanced Salt Solution (HBSS) containing 20 mM HEPES (pH readjusted to 7.4) along with 0.02% BSA. […]
quantity kind: IC50 (nM)
Please state the figure in nM; there is no need to write the unit.

Consider the reported IC50 for these compounds:
# structure notation, IC50 / nM
records = [
    ("O=C(NCc1cc(-c2cnc(C(F)(F)F)nc2)nc(-c2cnc(C(F)(F)F)nc2)c1)[C@@H]1C[C@@H](F)CN1S(=O)(=O)c1ccc(F)cc1", 71),
    ("O=C(NCc1cc(F)cc(-c2cnc(C(F)F)cn2)c1)[C@@H]1C[C@@H](F)CN1S(=O)(=O)c1ccc(F)cc1", 62),
]

Quick one: IC50 for "O=C(NCc1cc(-c2ccc(C(F)(F)F)nc2)ncn1)[C@@H]1C[C@H]2C[C@H]2N1S(=O)(=O)c1ccc(F)cc1" ?
156

Quick one: IC50 for "COc1cnc(CNC(=O)[C@]2(C)C[C@@H](F)CN2S(=O)(=O)c2ccc(F)cc2)cc1-c1ccc(C(F)(F)F)nc1" ?
164

###

molecular target: human TRPA1 (Homo sapiens (Human)); test: IC50 determination on the human TRPA1 channel, calcium fluorescence (Hamamatsu FDSS plate reader); type: cell-based; conditions: CHO cells expressing human TRPA1; block of cinnamaldehyde induced calcium influx; 20 minutes compound incubation; Hill coefficient fixed to 1.5; read-out: hTRPA1 AUC IC50
Entries annotated with measured IC50
Please state the figure in nM; there is no need to write the unit.

# compound, quantity kind, test value
records = [
    ("O=C(NCc1cc(-c2ccc(C(F)(F)F)nc2)c(F)cn1)[C@@H]1C[C@@H](F)CN1S(=O)(=O)c1ccc(F)cc1 [Example 9]", "IC50", 20),
    ("C[C@@]1(C(=O)NCc2cc(-c3ccc(C(F)(F)F)nc3)ncn2)CCCN1S(=O)(=O)c1ccc(F)cc1 [Example 1]", "IC50", 51),
    ("C[C@@]1(C(=O)NCc2cc(-c3ccc(C(F)(F)F)nc3)ncn2)CCN1S(=O)(=O)c1ccc(F)cc1 [Example 2]", "IC50", 59),
]

// next entry
Quick one: IC50 for O=C(NCc1cc(-c2ccc(C(F)(F)F)nc2)ncn1)[C@@H]1C[C@@H](F)CN1S(=O)(=O)c1ccc(F)cc1 [Example 3] ?
97

###

target: human TRPA1 (Homo sapiens (Human)); test: FLIPR Tetra calcium influx assay, block of cinnamaldehyde-induced calcium influx in CHO cells expressing TRPA1 (human); format: cell-based; details: 20 min compound incubation, 75 uM cinnamaldehyde (~EC80), Hill coefficient fixed to 1.5, read-out: hTRPA1 AUC IC50
quantity kind: pIC50
Please report pIC50 as the negative decimal logarithm of the molar concentration, giving only the number.

Consider the reported pIC50 for these compounds:
# structure notation, pIC50
rows = [
    ("O=C(NCc1cc(-c2cnc(C(F)(F)F)nc2)cnc1F)[C@@H]1C[C@@H](F)CN1S(=O)(=O)c1ccc(F)cc1", 6.68),
    ("O=C(NCc1cc(-c2ccc(C(F)(F)F)cn2)ccn1)[C@@H]1C[C@@H](F)CN1S(=O)(=O)c1ccc(F)cc1", 6.99),
    ("O=C(NCc1cc(-c2ccc(C(F)(F)F)cc2)ncn1)[C@@H]1C[C@@H](F)CN1S(=O)(=O)c1ccc(F)cc1", 7.82),
]

Quick one: pIC50 for "O=C(NCc1cc(-c2ccc(C(F)(F)F)cc2F)ncn1)[C@@H]1C[C@@H](F)CN1S(=O)(=O)c1ccc(F)cc1" ?
6.79
